Measured values drawn from BigSolDB 2.1 for this set.

Protocol Conditions: in acetonitrile, 318.15 K

{"Chem Smiles": "CCOC(=O)C1(c2ccccc2)CCN(CCC(C#N)(c2ccccc2)c2ccccc2)CC1", "solubility (mole fraction)": 0.0124}

* * *

Protocol Conditions: in water, 303.15 K

{"Chem Smiles": "CCOC(=O)C1(c2ccccc2)CCN(CCC(C#N)(c2ccccc2)c2ccccc2)CC1", "solubility (mole fraction)": "1.45e-05"}

* * *

Protocol Conditions: in ethanol, 303.15 K
Parameter Measured: solubility (mole fraction)

{"Chem Smiles": "CCOC(=O)C1(c2ccccc2)CCN(CCC(C#N)(c2ccccc2)c2ccccc2)CC1", "Parameter Measured": "solubility (mole fraction)", "Quantitative Readout": 0.0023}
